- TARGET ENTITY: Estrogen receptor beta (Homo sapiens, UniProt Q92731)
- Sequence (Q92731 whole entry): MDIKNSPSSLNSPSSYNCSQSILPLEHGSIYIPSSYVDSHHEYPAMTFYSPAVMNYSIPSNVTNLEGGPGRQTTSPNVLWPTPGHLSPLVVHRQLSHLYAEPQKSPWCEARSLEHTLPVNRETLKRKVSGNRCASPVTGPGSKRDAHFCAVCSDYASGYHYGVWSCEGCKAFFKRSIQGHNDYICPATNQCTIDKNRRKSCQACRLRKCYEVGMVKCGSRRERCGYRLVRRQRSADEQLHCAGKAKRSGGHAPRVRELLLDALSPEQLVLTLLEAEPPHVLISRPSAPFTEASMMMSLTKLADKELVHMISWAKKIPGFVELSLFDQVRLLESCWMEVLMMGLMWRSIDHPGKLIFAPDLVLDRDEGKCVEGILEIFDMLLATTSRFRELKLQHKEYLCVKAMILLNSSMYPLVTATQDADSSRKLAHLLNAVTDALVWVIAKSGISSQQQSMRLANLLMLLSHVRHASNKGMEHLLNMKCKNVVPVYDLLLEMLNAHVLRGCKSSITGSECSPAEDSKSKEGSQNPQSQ
- ASSAY DETAILS: Displacement of [3H]estradiol from human full-length ERbeta after 18 to 24 hrs by relative binding affinity/competitive radiometric binding assay relative to estradiol
- CONDITION INFO: concentration not given here
REPORTED PROPERTY: inhibition (%)

Look over these answered cases.
SMILES STRUCTURE | TARGET ENTITY | inhibition, %
C/C(=N\O)c1cc(-c2ccc(O)c(F)c2)ccc1O | Estrogen receptor beta (Homo sapiens, UniProt Q92731) | 12
C/C(=N\O)c1cc(-c2ccc(O)c(Cl)c2)ccc1O | Estrogen receptor beta (Homo sapiens, UniProt Q92731) | 1.1
C/C(=N\O)c1cc(-c2ccc(Cl)cc2)ccc1O | Estrogen receptor beta (Homo sapiens, UniProt Q92731) | 0.099
COc1ccc(-c2ccc(O)c(/C(C)=N/O)c2)cc1 | Estrogen receptor beta (Homo sapiens, UniProt Q92731) | 0.011
CC/C(=N\O)c1cc(-c2ccc(O)c(F)c2)ccc1O | Estrogen receptor beta (Homo sapiens, UniProt Q92731) | 49
C/C(=N\O)c1cc(-c2ccc(O)cc2)ccc1O | Estrogen receptor beta (Homo sapiens, UniProt Q92731) | 46

a = C/C(=N\O)c1cc(-c2ccc(O)c(C)c2)ccc1O
b = C/C(=N\O)c1cc(-c2ccc(F)cc2)ccc1O
c = CC/C(=N\O)c1cc(-c2ccc(O)cc2)ccc1O
d = O/N=C(/c1cc(-c2ccc(O)cc2)ccc1O)C(F)(F)F
Q: # desc sort on inhibition across 4 compounds // rank by listing labels in the order requested
A: c, a, d, b
